Test: in vitro;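 note: filter plate membrane of 1% soybean lecithin in dodecane, donor and acceptor in 5% DMSO/PBS, incubated at 25 °C, peptide in both compartments measured by LC-MS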
Type: in vitro ADME
Conditions: PAMPA
Non-standard residues stand in square brackets, D forms with d. Residues, ends and D or L forms follow the SMILES beside them. PhLac = O=C(O)[C@@H](O)Cc1ccccc1; Hica(2S) = CC(C)C[C@H](O)C(=O)O; NMeL = CN[C@@H](CC(C)C)C(=O)O
measurement_label: Papp (×10⁻⁶ cm/s)

compound	Papp (×10⁻⁶ cm/s)
CC(C)C[C@@H]1NC(=O)[C@@H](CC(C)C)NC(=O)[C@H](CO)NC(=O)[C@H](Cc2ccccc2)OC(=O)[C@H]2CCCN2C(=O)[C@H](CC(C)C)NC1=O [CP1-Y1F-L2S O] (cyclo(LL[dP][PhLac]S[dL]))	4.1

(I) CC(C)C[C@@H]1NC(=O)[C@H](Cc2ccc(O)cc2)NC(=O)[C@H]2CCCN2C(=O)[C@H](CC(C)C)NC(=O)[C@H](CC(C)C)N(C)C(=O)[C@@H](CC(C)C)NC1=O [MP4] (cyclo(L[dL][NMeL]L[dP]Y))
(II) CC(C)C[C@@H]1NC(=O)[C@H](Cc2ccc(O)cc2)NC(=O)[C@H]2CCCN2C(=O)[C@H](CC(C)C)NC(=O)[C@H](CC(C)C)OC(=O)[C@@H](CC(C)C)NC1=O [DP4] (cyclo(L[dL][Hica(2S)]L[dP]Y))
Input: Which of the two gives a bigger number for Papp: I or II ? Reply with the label of the item you choose.
Output: II
(II: 4.2 ×10⁻⁶ cm/s, I: 2.5 ×10⁻⁶ cm/s)
